Experimental target: T1, interleukin 18 binding protein (IL-18BP) (UniProt O95998 31-194); further: unit not given here
T1 sequence (looked up): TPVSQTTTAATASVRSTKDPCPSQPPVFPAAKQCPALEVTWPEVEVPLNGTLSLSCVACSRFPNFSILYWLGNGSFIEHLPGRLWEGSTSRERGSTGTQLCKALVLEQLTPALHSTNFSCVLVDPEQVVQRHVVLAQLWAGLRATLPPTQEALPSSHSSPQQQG
Method notes: cell-based or functional assay
Result type: HEK-Blue activity, +100 nM BP, DF-1,000,000

Recorded results for 2 binders are shown here.
Binder	Result
IL-18 variant K8R, L9G, S10C, K53G, S55A, R104G (ligand) YFGKLESRGCVIRNLNDQVLFIDQGNRPLFEDMTDSDMRDNAPRTIFIISMYGDAQPRGMAVTISVKSEKISTLSSENKIISFKEMNPPDNIKDTKSDIIFFQGSVPGHDNKMQFESSSYEGYFLASEKERDLFKLILKKEDELGDRSIMFTVQNED	0.1
IL-18 variant L15I, K53H, S55M (ligand) YFGKLESKLSVIRNINDQVLFIDQGNRPLFEDMTDSDMRDNAPRTIFIISMYHDMQPRGMAVTISVKSEKISTLSSENKIISFKEMNPPDNIKDTKSDIIFFQRSVPGHDNKMQFESSSYEGYFLASEKERDLFKLILKKEDELGDRSIMFTVQNED	0.08

Now look at this one.
What HEK-Blue activity, +100 nM BP, DF-1,000,000 value was documented for this binder, IL-18 variant K53H, S55Y (ligand) YFGKLESKLSVIRNLNDQVLFIDQGNRPLFEDMTDSDMRDNAPRTIFIISMYHDYQPRGMAVTISVKSEKISTLSSENKIISFKEMNPPDNIKDTKSDIIFFQRSVPGHDNKMQFESSSYEGYFLASEKERDLFKLILKKEDELGDRSIMFTVQNED ?
0.11
